- System: OCI-AML2
- method notes: cell viability relative to vehicle control; higher = less cytotoxic;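 further: after 48 h exposure read by CellTiter-Glo luminescence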
- condition label: 10 µM; SRSF2 genotype: P95H/wt
Where a name gives a salt, the structure may show the parent alone.
Kindly supply the reported cell viability values for the records listed here.

Data request: Please give the measured cell viability for this compound: `C1CCN2C[C@@H]3C[C@@H](CN4CCCC[C@@H]34)[C@H]2C1`
Data returned: 97.5%

Data request: Likewise for `C[C@@H]1CCCC2=CC(=O)[C@@H]3[C@@H](C3(C)C)[C@]21C` ?
Data returned: 98.3%

Data request: `Nc1nc(N)c2nc(-c3ccccc3)c(N)nc2n1` , same question.
Data returned: 101%

Data request: Item: `CCOc1cc(C(=O)N2CCC(N3CCN(C)CC3)CC2)ccc1Nc1ncc2c(n1)N(C1CCCC1)c1ccccc1C(=O)N2C`
Data returned: 2.24%

Data request: Try the compound `CC(C)n1c(=O)n(C)c2cnc3cc(F)c(-c4ccc(OCCCN5CCCCC5)nc4)cc3c21`
Data returned: 32.7%

Data request: Would you kindly repeat that for `CCOc1nc2cccc(C(=O)O)c2n1Cc1ccc(-c2ccccc2-c2noc(=O)[nH]2)cc1` ?
Data returned: 101%

Data request: Also, CCCOc1ccc(C(=O)OCCN(CC)CC)cc1N [Proparacaine HCl] please.
Data returned: 90.2%

Data request: Also CC(=O)c1ccc(O)cc1O [2,4-Dihydroxyacetophenone] , if possible.
Data returned: 92.3%

Data request: Try CC(C)=CCCC(C)(O)C1CCC2(C)C1C(O)CC1C3(C)CCC(OC4OC(CO)C(O)C(O)C4OC4OC(CO)C(O)C(O)C4O)C(C)(C)C3CCC12C [(20R)Ginsenoside Rg3] next.
Data returned: 105%

Data request: // same read-out, input: COc1ccc(S(=O)(=O)N(CCO)c2ccccc2CN(C)C/C=C/c2ccc(Cl)cc2)cc1 [KN-93 Phosphate]
Data returned: 35.6%

Data request: And `OC[C@@H](O)[C@@H](O)[C@H](O)[C@@H](O)CO` ?
Data returned: 101%

Data request: Could you do the same for `O=CN1CC/C(=C/c2ccc3c(c2)OCO3)C1=O` , please?
Data returned: 67.1%

Data request: Try the compound CCCNC(C)C(=O)Nc1ccccc1C (configuration not stated)
Data returned: 89.1%

Data request: Then what about the compound `CCN=C1N[C@@H]2[C@@H](O)[C@H](O)[C@@H](CO)O[C@@H]2S1` ?
Data returned: 101%

Data request: Same question, `CC(C)OC(=O)CCC/C=C\C[C@@H]1[C@@H](/C=C/C(F)(F)COc2ccccc2)[C@H](O)C[C@@H]1O` this time
Data returned: 90.6%

Data request: And then COc1c(N2CCNC(C)C2)c(F)cc2c(=O)c(C(=O)O)cn(C3CC3)c12 (configuration not stated) , what is it?
Data returned: 104%

Data request: Cool, now `CN(C)c1ccc2nc3c(C(=O)O)cc(=O)c(O)c-3oc2c1`
Data returned: 84%

###

- Test system: MOLM14
- method notes: cell viability relative to vehicle control; higher = less cytotoxic
- condition label: 10 µM; SRSF2 genotype: SRSF2 wt/wt
Structures can show the parent of a compound that is named as a salt.
quantity name: cell viability (%)
Output spec: scalar in %, unitless text.

Data request: Field: cell viability (MOLM14). Entry: `CCCCCCCCCCCCc1ccc(S(=O)(=O)Nc2nncs2)cc1`
Data returned: 106

Data request: Try the compound CC(C)=CCC/C(C)=C/CC/C(C)=C/CCC(=O)OC/C=C(\C)CCC=C(C)C [Gefarnate]
Data returned: 102

Data request: Another compound to look at: `CC1=CCC[C@H](C)C(=O)C[C@@H](C(C)C)C(=O)C1`
Data returned: 87.5

Data request: Now try `N#C[C@@H]1CCCN1C(=O)CNC12CC3CC(CC(O)(C3)C1)C2` .
Data returned: 89

Data request: Try `Cn1cc(CNCC2CCN(c3ncc(C(=O)NO)cn3)CC2)c2ccccc21` next.
Data returned: 0.54

Data request: Next compound: CCCCc1oc2ccc(NS(C)(=O)=O)cc2c1C(=O)c1ccc(OCCCN(CCCC)CCCC)cc1 [Dronedarone HCl (Multaq)]
Data returned: 0.6

Data request: Now consider CCCCCCC(O)C(=O)O (stereo not given) [2-Hydroxycaprylic acid] .
Data returned: 109

Data request: Cool, now `CCCNS(=O)(=O)Nc1ncnc(OCCOc2ncc(Br)cn2)c1-c1ccc(Br)cc1`
Data returned: 110

Data request: Param item: `CNC(=O)[C@H](Cc1c[nH]c2ccccc12)NC(=O)[C@@H](CC(=O)NO)CC(C)C`
Data returned: 97.8

Data request: Try this compound next: `Cc1[nH]c(=O)c(C#N)cc1-c1ccncc1`
Data returned: 99.1

Data request: Further, for `Cc1ccc(-c2c(-c3nn(C)c4ncnc(N5CC[C@H](N6CCCCC6)C5)c34)cnn2C)cc1` ?
Data returned: 101

Data request: What do we get for `CC(C)=CCC/C(C)=C/CC/C(C)=C/CC/C=C(\C)CC/C=C(\C)CCC=C(C)C` ?
Data returned: 101

Data request: Can you check `C[C@@H]1CC[C@@]2(OC1)O[C@H]1C[C@H]3[C@@H]4CC=C5C[C@@H](O[C@@H]6O[C@H](CO)[C@@H](O[C@@H]7O[C@@H](C)[C@H](O[C@@H]8O[C@@H](C)[C@H](O)[C@@H](O)[C@H]8O)[C@@H](O)[C@H]7O)[C@H](O)[C@H]6O[C@@H]6O[C@@H](C)[C@H](O)[C@@H](O)[C@H]6O)CC[C@]5(C)[C@H]4CC[C@]3(C)[C@@]1(O)[C@@H]2C` next?
Data returned: 0.46

Data request: Entry to check: `Cc1ccc(S(=O)(=O)Cc2nc(-c3ccc(C(=O)NCc4cccnc4)cc3)oc2C)cc1`
Data returned: 2

Data request: Record: COc1cc2c(cc1OC)-c1c(C)c3ccc(OC)c(OC)c3c[n+]1CC2 [Dehydrocorydalin]
Data returned: 95.6

###

Exercise: for every item that follows, state its recorded cell viability.
- System: MARIMO
- method notes: cell viability relative to vehicle control; higher = less cytotoxic
- condition label: 10 µM; SRSF2 genotype: SRSF2 P95H/wt
The reply should contain only the number, in %.

Data request: What cell viability value was documented for this molecule, O=C(O)C(=O)O [Oxalic acid] ?
Data returned: 95.8

Data request: Check CC(=O)O[C@@H]1C[C@@]23C[C@@]24CC[C@H](O[C@@H]2OC[C@@H](O)[C@H](O)[C@H]2O)C(C)(C)[C@@H]4CC=C3[C@]2(C)C[C@@H]3OC4(C[C@@H](C)[C@@H]3[C@@]12C)OC(O)C1(C)OC41 (stereo partly specified) [Cimicifugoside] too.
Data returned: 109

Data request: Another molecule to check: `Cc1ccc2nc(NC(=O)CSc3nc4c(c(=O)n3-c3ccccc3)SCC4)sc2c1`
Data returned: 94

Data request: # repeat for CC[C@H]1OC(=O)[C@H](C)[C@@H](O[C@H]2C[C@@](C)(OC)[C@@H](O)[C@H](C)O2)[C@H](C)[C@@H](O[C@@H]2O[C@H](C)C[C@H](N(C)C)[C@H]2O)[C@](C)(O)C[C@@H](C)C(=O)[C@H](C)[C@@H](O)[C@]1(C)O [Erythromycin thiocyanate]
Data returned: 82.7

Data request: Now the molecule O=C(O)CCCCC(CCSCc1ccccc1)SCc1ccccc1 (stereo unspecified)
Data returned: 99.6

Data request: Please answer likewise for Clc1ccc2c(N3CCN(CCCN4CCN(c5ccnc6cc(Cl)ccc56)CC4)CC3)ccnc2c1 [Piperaquine phosphate]
Data returned: 93.8

###

Can you tell me cell viability for the items I'm about to list?
- System: K562
- method notes: cell viability relative to vehicle control; higher = less cytotoxic
- condition label: 10 µM; SRSF2 genotype: SRSF2 wt/wt
Where a name gives a salt, the structure may show the parent alone.
Record the value in %, omitting the unit from your answer.

Data request: Which cell viability is reported for this compound? `Cc1ncc(NC(=O)c2cccc(C(F)(F)F)c2)cc1-c1cnc(OC2CCOCC2)c(N2CCOCC2)c1`
Data returned: 71.2

Data request: Check `Cc1cc(C)c(CNC(=O)c2cc(-c3ccc(N4CCN(C)CC4)nc3)cc3c2c(C)cn3C(C)C)c(=O)[nH]1` too.
Data returned: 86

Data request: O=C(O)[C@@]1(CCCCCCOc2ccc(Cl)cc2)CO1 [Etomoxir (Na salt)] ?
Data returned: 115

Data request: Also `CN(C)c1ccc(-c2nc3ncc(Cl)c(N4CCN(CC(=O)Nc5nccs5)CC4)c3[nH]2)cc1` , if possible.
Data returned: 95.2

Data request: And what about the compound `CCC(CC)(NC(=O)C(C)C)C(=O)N[C@@H](CCCN=C(N)N)C(=O)NC1(C(=O)NC(c2ccc(F)cc2)c2ccc(F)cc2)CCCC1` ?
Data returned: 106

Data request: Next: `C[C@@H](N)c1ccc(C(=O)Nc2ccnc3[nH]ccc23)cc1`
Data returned: 105

Data request: Please give the result for `CCCCCCCCCCCCCCCC(=O)N[C@@H](CCSC)C(=O)NCC(=O)N[C@@H](Cc1ccc(O)cc1)C(=O)N[C@@H](CCC(N)=O)C(=O)N[C@@H](CCCCN)C(=O)N[C@@H](CCCCN)C(=O)N[C@@H](CC(C)C)C(=O)N[C@@H](CCCNC(=N)N)C(=O)N[C@@H](CO)C(=O)N[C@@H](CCSC)C(=O)N[C@H](C(=O)N[C@@H](CC(=O)O)C(=O)N[C@@H](CCCCN)C(=O)N[C@@H](Cc1ccc(O)cc1)C(=O)N[C@@H](CCCNC(=N)N)C(=O)N[C@@H](CC(C)C)C(=O)O)[C@@H](C)O` too.
Data returned: 90

Data request: Continue with `Cc1nc(NC(=O)N2CCC[C@H]2C(N)=O)sc1-c1csc(C(C)(C)C)n1`
Data returned: 89.9

Data request: Same for CCCc1nc(C)c2c(=O)[nH]c(-c3cc(S(=O)(=O)N4CCN(CC)CC4)ccc3OCC)nn12 [Vardenafil Hydrochloride Trihydrate (Vivanza]
Data returned: 97.1

Data request: Try `C[C@@H]1CC[C@@]2(OC1)O[C@H]1C[C@H]3[C@@H]4CC=C5C[C@@H](O)C[C@@H](O)[C@]5(C)[C@H]4CC[C@]3(C)[C@H]1[C@@H]2C` next.
Data returned: 98

Data request: Further, for CN1CCC[C@@H]1CCO[C@](C)(c1ccccc1)c1ccc(Cl)cc1 [Clemastine Fumarate] ?
Data returned: 81.6

Data request: // repeat for CC1(C)O[C@@H]2[C@@H](CO[C@@]3(COS(N)(=O)=O)OC(C)(C)O[C@@H]23)O1 [Topiramate] and report
Data returned: 99.3

Data request: What about this compound? `CN(CCNCc1cn(Cc2ccc(Cl)cc2)nn1)CCNc1ccnc2cc(Cl)ccc12`
Data returned: 6.48
